Consider the following compounds; for each one, report its viability, T/C.
# System: 628569-122-R-J1-PDC complex spheroid viability;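 note: spheroids exposed to agents for seven days before readout; 100% = DMSO vehicle control viability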
# Protocol Summary: Anticancer human tumor 628569-122-R-J1-PDC patient-derived head and neck squamous carcinoma cell line growth inhibition [CLK]
# Condition Summary: second compound 3.16 µM; first compound 0.0316 µM; active compounds read low

Solved cases (4 shown):
- Compound: "COc1cccc2c1C(=O)c1c(O)c3c(c(O)c1C2=O)CC(O)(C(=O)CO)CC3OC1CC(N)C(O)C(C)O1 (stereo not given) + CNC(=O)c1ccc(Nc2nc(OC3CCCC3)c3c(-c4ccc5nc(C)oc5c4)c[nH]c3n2)c(OC)c1"
  Result: "43.2%"
- Compound: "O=c1[nH]cc(F)c(=O)[nH]1 + CN1CCN(c2cc(C(=O)Nc3cc4cc(-c5cnn(C)c5)ccc4cn3)ccn2)CC1"
  Result: "9.61%"
- Compound: "Cn1ncnc1[C@H]1c2n[nH]c(=O)c3cc(F)cc(c23)N[C@@H]1c1ccc(F)cc1 + CN1CCN(c2cc(C(=O)Nc3cc4cc(-c5cnn(C)c5)ccc4cn3)ccn2)CC1"
  Result: "9.05%"
- Compound: "Cn1ncnc1[C@H]1c2n[nH]c(=O)c3cc(F)cc(c23)N[C@@H]1c1ccc(F)cc1 + CNC(=O)c1ccc(Nc2nc(OC3CCCC3)c3c(-c4ccc5nc(C)oc5c4)c[nH]c3n2)c(OC)c1"
  Result: "37.7%"

Next:
Find the recorded viability, T/C belonging to CC(CO)NC(=O)c1cc(-c2ccc(Cl)cc2)nn(-c2cnn(C)c2)c1=O (stereo not given) + CNC(=O)c1ccc(Nc2nc(OC3CCCC3)c3c(-c4ccc5nc(C)oc5c4)c[nH]c3n2)c(OC)c1 and report it.
70.8%

Entry source: PubChem BioAssay AID2060611
